Target: TBK1 (Homo sapiens (Human))
Sequence (Q9UHD2 whole entry): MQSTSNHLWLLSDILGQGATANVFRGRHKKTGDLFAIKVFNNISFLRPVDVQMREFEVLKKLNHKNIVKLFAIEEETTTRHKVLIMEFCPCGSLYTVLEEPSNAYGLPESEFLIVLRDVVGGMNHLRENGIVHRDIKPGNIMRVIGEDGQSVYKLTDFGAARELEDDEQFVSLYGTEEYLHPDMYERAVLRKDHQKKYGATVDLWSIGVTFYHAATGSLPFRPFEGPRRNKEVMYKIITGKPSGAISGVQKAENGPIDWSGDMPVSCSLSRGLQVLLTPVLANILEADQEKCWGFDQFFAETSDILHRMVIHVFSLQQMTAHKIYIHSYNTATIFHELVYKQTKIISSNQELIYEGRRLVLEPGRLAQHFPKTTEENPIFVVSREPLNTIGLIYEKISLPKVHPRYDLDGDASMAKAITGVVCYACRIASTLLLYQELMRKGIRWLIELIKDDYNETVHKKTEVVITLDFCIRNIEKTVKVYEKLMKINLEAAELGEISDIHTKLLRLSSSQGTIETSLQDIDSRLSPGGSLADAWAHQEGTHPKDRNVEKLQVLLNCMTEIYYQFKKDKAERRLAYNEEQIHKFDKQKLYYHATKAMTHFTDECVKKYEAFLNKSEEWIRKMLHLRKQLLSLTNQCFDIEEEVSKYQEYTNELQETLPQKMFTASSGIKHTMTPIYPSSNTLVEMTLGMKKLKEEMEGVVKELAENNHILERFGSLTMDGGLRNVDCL
Assay: TBK1 TR-FRET enzymatic assay
pIC50: −log10 of the molar value.
endpoint.label: pIC50

- compound: "COCCN1CC(COc2ccc(-c3ncnc(Nc4ccc(N5CCN(C6COC6)CC5)cc4)n3)cc2C#N)CC1=O (stereo not drawn)"
  endpoint.label: "pIC50"
  reported.value: 6.00

I. N#Cc1cc(-c2ncnc(Nc3cnn(CC(F)F)c3)n2)ccc1O[C@H]1CCN(C(=O)CO)C[C@H]1F
II. N#Cc1cc(-c2ncnc(Nc3ccc(N4CCN(C5COC5)CC4)c(F)c3)n2)ccc1OC1CCS(=O)(=O)CC1
Pick one: I or II . Which one has the lower reported pIC50? Answer with the label corresponding to your selection.
II
(II: 7.92, I: 8.70)

a. C[C@H](O)C(=O)N1CC[C@H](Oc2ccc(-c3ncnc(Nc4ccc(N5CCOC(C(N)=O)C5)cc4)n3)cc2C#N)[C@H](F)C1 (stereo partly drawn)
b. CC1(C)CN(C(=O)[C@@H]2CCC(=O)N2)C[C@@H](F)[C@H]1Oc1ccc(-c2ncnc(Nc3ccc(N4CCN(C5COC5)CC4)cc3)n2)cc1C#N
Record comparison, field pIC50: mark the lower of a and b . Please respond with the label that marks your chosen entry.
b

----------
Below are IC50 values recorded for hJAK2 (Homo sapiens (Human)).
endpoint.label: IC50 (µM)

A. CC(=O)N1CC[C@H](Oc2ccc(-c3ncnc(Nc4ccc(S(C)(=N)=O)cc4)n3)cc2C#N)C(F)(F)C1 (stereo partly drawn) [Example 481]
B. Cc1cc(Nc2ncnc(-c3ccc(O[C@H]4CCN(C(=O)[C@@H]5CCC(=O)N5)C[C@H]4F)c(C#N)c3)n2)ccc1N1CCN(C2COC2)CC1 [Example 536]
C. C[C@H](O)C(=O)N1CC[C@H](Oc2ccc(-c3ncnc(Nc4ccc(N5CCC[C@@H](O)C5)cc4)n3)cc2C#N)[C@H](F)C1 [Example 357]
Rank the items in ascending order with respect to IC50. As an answer, provide the labels arranged in the order called for.
B, A, C

----------
Biological target: IKKε (Homo sapiens (Human))
Assay: IKKε TR-FRET enzymatic assay
Type: biochemical
Conditions: read-out: IKKe IC50
endpoint.label: IC50 (nM)

Solved cases below.
- compound: "C[C@H](O)C(=O)N1CC[C@H](Oc2ccc(-c3ncnc(Nc4ccc(N5CCOC[C@H]5CO)cc4)n3)cc2C#N)[C@H](F)C1 [Example 383]"
  assayed.system: "IKKε (Homo sapiens (Human))"
  reported.value: 1
- compound: "N#Cc1cc(-c2ncnc(Nc3cnn(CC(F)F)c3)n2)ccc1O[C@H]1CCN(C(=O)CO)C[C@H]1F [Example 361]"
  assayed.system: "IKKε (Homo sapiens (Human))"
  reported.value: 1
- compound: "C[C@H]1CN(c2ccc(Nc3ncnc(-c4ccc(O[C@H]5CCN(C(=O)c6cnn[nH]6)C[C@H]5F)c(C#N)c4)n3)cc2)CCN1C1COC1 [Example 263]"
  assayed.system: "IKKε (Homo sapiens (Human))"
  reported.value: 3

1. N#Cc1cc(-c2ncnc(Nc3ccc(N4CCN(C5COC5)CC4)cc3)n2)ccc1OCCc1cnc2ncnn2c1 [Example 599]
2. C[C@H](O)C(=O)N1CC[C@H](Oc2ccc(-c3ncnc(Nc4ccc(N5CC6(COC6)C5)cc4)n3)cc2C#N)[C@H](F)C1 [Example 364]
3. N#Cc1cc(-c2ncnc(Nc3ccc(N4CCS(=O)(=O)CC4)cc3)n2)ccc1OC1CCOCC1 [Example 1]
4. N#Cc1cc(-c2ncnc(Nc3ccc(N4CCN(C5COC5)CC4)cc3)n2)ccc1O[C@H]1C[C@@H]2C[C@H]1N(C(=O)CO)C2 [Example 102]
Your job: order these 4 records by IC50, ascending. Answer by listing the labels in the requested order.
2, 3, 4, 1

----------
Biological target: TBK1 (Homo sapiens (Human))
Assay: TBK1 TR-FRET enzymatic assay
pIC50: −log10 of the molar value.
endpoint.label: pIC50

Known results for compounds:
- compound: "N#Cc1cc(-c2ncnc(Nc3ccc(N4CCN(C5COC5)CC4)cc3)n2)ccc1OCC1(C(N)=O)CC1"
  assayed.system: "TBK1 (Homo sapiens (Human))"
  pIC50: 7.92
- compound: "CCOC(=O)c1cccc(Nc2ncnc(-c3ccc(O[C@H]4CCN(C(=O)[C@H](C)O)C[C@H]4F)c(C#N)c3)n2)c1"
  assayed.system: "TBK1 (Homo sapiens (Human))"
  pIC50: 8.22

I. N#Cc1cc(-c2ncnc(Nc3ccc(N4CCOCC4)cc3)n2)ccc1N1CCCC1
II. C[C@H](O)C(=O)N1CC[C@H](Oc2ccc(-c3ncnc(Nc4ccc(N5CCO[C@@H](C(N)=O)C5)cc4)n3)cc2C#N)[C@H](F)C1
Sort I and II by pIC50 descending and give the first. Output the label that corresponds to your choice.
I
(I: 8.30, II: 8.05)

----------
Target: UniProtKB O60674
endpoint.label: IC50 (nM)

- molecule: "CC(=O)N1CC[C@H](Oc2ccc(-c3ncnc(Nc4ccc(N5CCN(C6COC6)CC5)cc4)n3)cc2C#N)[C@H](F)C1 [Example 289]"
  u: "nM"
  IC50: 444

I. N#Cc1cc(-c2ncnc(Nc3ccc(N4CCN(C5COC5)CC4)cc3)n2)ccc1OCC1CCOCC1 [Example 285]
II. N#Cc1cc(-c2ncnc(Nc3ccc(N4CCN(C5COC5)CC4)cc3)n2)ccc1OC1CCN(C(=O)CO)CC1 [Example 16]
Of the two listed items, I and II , which carries the larger IC50 figure? Please respond with the label that marks your chosen entry.
II
(II: 603 nM, I: 313 nM)

----------
Target: UniProt Q9UHD2
Assay: TBK1 TR-FRET enzymatic assay;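 further: phosphorylation of a biotinylated Ser/Thr peptide by purified full-length recombinant TBK1, read by TR-FRET after 240 min at 25 °C, IC50 is the geometric mean of at least four runs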
endpoint.label: IC50 (nM)

// worked examples, IC50 included
- compound: "N#Cc1cc(-c2ncnc(Nc3ccc(N4CCN(C5COC5)CC4)cc3)n2)ccc1OC1COC1"
  IC50 / nM: 35
- compound: "N#Cc1cc(-c2ncnc(Nc3ccc(N4CCN(C5COC5)CC4)cc3)n2)ccc1F"
  IC50 / nM: 853

1. N#Cc1cc(-c2ncnc(Nc3cccc(C(O)C(F)(F)F)c3)n2)ccc1OC1CCOCC1 (stereo not shown)
2. N#Cc1cc(-c2ncnc(Nc3ccc(N4CCN(C5COC5)CC4)cc3)n2)ccc1O[C@H]1CCN(C(=O)N2CC[C@@H](F)C2)C[C@H]1F
Could you point out whether the larger IC50 belongs to 1 or to 2 ? Respond using the label that marks the chosen record.
2

----------
Target: UniProt Q14164
Experiment: IKKε TR-FRET enzymatic assay
Type: biochemical
Details: read-out: IKKe IC50
pIC50: −log10 of the molar value.
endpoint.label: pIC50

Previously resolved entries follow.
- compound: "N#Cc1cc(-c2ncnc(Nc3ccc(N4CC(O)C4)nc3)n2)ccc1OC1CCOCC1 [Example 287]"
  assayed.system: "UniProt Q14164"
  endpoint.label: "pIC50"
  reported.value: 7.70
- compound: "C[C@H](O)C(=O)N1CCC(Oc2ccc(-c3ncnc(Nc4ccc(N5CCO[C@@H](CO)C5)cc4)n3)cc2C#N)C(F)(F)C1 (stereo partly shown) [Example 228]"
  assayed.system: "UniProt Q14164"
  endpoint.label: "pIC50"
  reported.value: 8.70
- compound: "N#Cc1cc(Nc2ncnc(-c3ccc(OC4CCOCC4)c(C#N)c3)n2)ccc1OC1CCOCC1 [Example 36]"
  assayed.system: "UniProt Q14164"
  endpoint.label: "pIC50"
  reported.value: 7.92
- compound: "N#Cc1cc(-c2ncnc(Nc3ccc(N4CCN(C5COC5)CC4)cc3)n2)ccc1OC1CCCN(C(=O)CO)CC1 (stereo not shown) [Example 97]"
  assayed.system: "UniProt Q14164"
  endpoint.label: "pIC50"
  reported.value: 7.66
- compound: "C[C@H]1C[C@@H](Oc2ccc(-c3ncnc(Nc4ccc(N5CCN(C6COC6)CC5)cc4)n3)cc2C#N)CCN1C(=O)CC#N [Example 187]"
  assayed.system: "UniProt Q14164"
  endpoint.label: "pIC50"
  reported.value: 7.89

A. COC[C@H](O)C(=O)N1CC[C@H](Oc2ccc(-c3ncnc(Nc4ccc(N5CCN(C6COC6)CC5)cc4)n3)cc2C#N)[C@H](F)C1 [Example 618]
B. C[C@H](O)C(=O)N1CCC(Oc2ccc(-c3ncnc(Nc4ccc(N5CCO[C@@H](CO)C5)cc4)n3)cc2C#N)CC1 [Example 225]
From the recorded data, which exceeds the other in pIC50: A or B ? Let me know the label of the one you choose.
A

----------
Target: IKKε (Homo sapiens (Human), UniProt Q14164)
Sequence (Q14164 whole entry): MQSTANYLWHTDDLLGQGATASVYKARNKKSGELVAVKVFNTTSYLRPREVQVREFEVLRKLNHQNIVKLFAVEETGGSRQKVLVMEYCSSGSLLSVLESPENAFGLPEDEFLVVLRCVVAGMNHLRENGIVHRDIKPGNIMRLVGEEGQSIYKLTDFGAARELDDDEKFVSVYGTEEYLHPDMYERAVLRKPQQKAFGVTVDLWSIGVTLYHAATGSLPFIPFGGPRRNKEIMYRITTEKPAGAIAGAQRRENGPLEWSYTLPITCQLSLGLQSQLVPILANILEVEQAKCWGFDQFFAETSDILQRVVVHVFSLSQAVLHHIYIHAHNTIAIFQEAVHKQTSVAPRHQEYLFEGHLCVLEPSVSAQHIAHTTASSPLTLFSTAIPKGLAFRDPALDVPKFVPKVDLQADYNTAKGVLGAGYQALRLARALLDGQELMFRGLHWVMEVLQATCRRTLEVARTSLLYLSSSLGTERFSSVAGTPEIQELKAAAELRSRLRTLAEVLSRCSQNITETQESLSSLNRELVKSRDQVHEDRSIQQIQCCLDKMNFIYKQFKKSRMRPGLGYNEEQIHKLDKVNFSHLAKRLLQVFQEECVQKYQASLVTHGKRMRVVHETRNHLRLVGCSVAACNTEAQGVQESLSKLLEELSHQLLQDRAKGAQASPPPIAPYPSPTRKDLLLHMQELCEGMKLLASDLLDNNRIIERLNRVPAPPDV
Assay: IKKε TR-FRET enzymatic assay
Type: biochemical
Conditions: IKKe IC50
The compounds listed here are annotated with their pIC50.
Just so you know, pIC50 here is -log10 of the concentration in molar units; reply with that number alone.

- compound: "N#Cc1cc(-c2ncnc(Nc3ccc(N4CCN(C5COC5)CC4)cc3)n2)ccc1OC1CC[S+]([O-])CC1 (single isomer, unassigned) [Example 25]"
  assayed.system: "IKKε (Homo sapiens (Human), UniProt Q14164)"
  reported.value: 7.14

Form field: reported pIC50 of N#Cc1cc(-c2ncnc(Nc3ccc(N4CCN(C5COC5)CC4)cc3)n2)ccc1OC1CC[S+]([O-])CC1 (single isomer, unassigned) [Example 26]
7.64
